Test system: MALME-3M melanoma
method summary: NCI-60 one-dose screen, 48 h
applied conditions: 10 µM unless noted
This is part of a sample that, as a whole, favours compounds with a hit. Of some 83,000 tested, about 20% had one in any assay. The source made the active and inactive calls. The calls were made as follows: active = growth percent below 10; inactive = the rest.
Your answer must be one of the following: T for active, F for inactive

| molecule | category label |
| --- | --- |
| COc1ccc2c(c1)c(/C=N/Nc1ccnc3cc(Cl)ccc13)cn2C | T |
| CCCCc1nc2c(N)nc3ccccc3c2n1Cc1cccc(CN)c1 | F |
| C#Cc1nc(/C=C\CCCCCCC(=O)NO)cs1 | T |
| NCCNC(=O)c1cccc(COc2ccccc2NC(=O)c2cc(Cl)c(Cl)[nH]2)c1 | F |
| O=S1SC(c2ccccc2)=NN1c1cc(F)cc(F)c1 (configuration not stated) | F |

Hi team, can someone confirm the assay call for COc1ccc(C2CC(c3cccc(OCCCCOc4cccc(C5=NOC(c6ccc(OC)cc6)C5)c4)c3)=NO2)cc1 (configuration not stated) ?
F

In this assay, the call recorded for O=C1[C@@H]2Cc3c([nH]c4ccccc34)[C@H](c3ccc(Br)cc3)N2C(=O)CN1C1CCN(Cc2c(Cl)cccc2Cl)CC1 was what?
F

====

System: CAKI-1 renal
method summary: NCI-60 one-dose screen, 48 h (100 = growth as untreated, 0 = no growth, -100 = all killed)
applied conditions: 10 µM unless noted
Compounds without any hit were thinned out: in the full panel of roughly 83,000, 20% have a hit.
assay readout: growth (%)
One number for each entry, in %.

The following molecules have reported results that may help.
| smiles string | assayed system | growth [%] |
| --- | --- | --- |
| CCCCCc1ccc(S(=O)(=O)Nc2cc(-c3csc(N)n3)ccc2OC)cc1 | CAKI-1 renal | 88.4 |
| Cc1[nH]c(C(=O)Nc2ccc(S(=O)(=O)N3CCCCC3)cc2OCCOCCOCCOCCOCCOCCOCCOCCOCCOc2cc(S(=O)(=O)N3CCCCC3)ccc2NC(=O)c2[nH]c(C)c3c2CCCCC3=O)c2c1C(=O)CCCC2 | CAKI-1 renal | 15.9 |
| CC(=O)N(O)CCCCCNC(=O)CCC(=O)N(O)CCCCCNC(=O)CCC(=O)N(O)CCCCCN(CCCCCCCCCC[P+](c1ccccc1)(c1ccccc1)c1ccccc1)CCCCCCCCCC[P+](c1ccccc1)(c1ccccc1)c1ccccc1 | CAKI-1 renal | 29.3 |
| O=C(COc1ccc(/C=C2\C(=O)Nc3ccc(F)cc32)cc1)Nc1ccccc1 | CAKI-1 renal | 82.4 |
| O=C1Nc2ccc(F)cc2/C1=C\C(=O)c1ccc(NS(=O)(=O)c2ccccc2)cc1 | CAKI-1 renal | 72.9 |

// next item, growth requested
Name the recorded growth of the item COc1ccc(C(=NNS(=O)(=O)c2ccc(C)cc2)c2ccccc2)cc1OC in your answer.
80.7

====

System: SW-620 colon
method summary: NCI-60 one-dose screen, 48 h
applied conditions: 10 µM unless noted
This is part of a sample that, as a whole, favours compounds with a hit. Of some 83,000 tested, about 20% had one in any assay. Active and inactive are the calls of the source. Rule for the calls: active = growth percent below 10; inactive = the rest.
Choose one outcome from this list and give only that: active, inactive

Known results for molecules:
| molecule | category label |
| --- | --- |
| Cc1[nH]c(C(=O)Nc2ccccc2OCc2cccc(C(=O)NC3CCCNC3)c2)c(Cl)c1Cl (configuration not stated) | active |
| COc1ccc(-c2c3c(cn2Cc2cccc(OC)c2)-c2oncc2CCC3)cc1 | inactive |
| CCc1cc(OC(=O)N2CCN(CCC(C)(COC(C)(C)C)COC(C)(C)C)CC2)ccc1Nc1cc(-c2ccc(-n3cccn3)cc2)[nH]n1 | inactive |

Recorded test call requested for Cc1ccc2c(n1)C(=O)C(Cl)=C(Nc1cccc(C(=O)OC(C)(C)C)c1)C2=O
inactive

Record lookup: outcome of this test for CCOC(=O)c1ccc(NC2=C(Cl)C(=O)c3nc(C)ccc3C2=O)cc1 ?
active

Please indicate how the test categorized N#Cc1c(-c2cccs2)cc(-c2cnccn2)nc1SCC(=O)N/N=C/c1ccncc1 .
inactive
